# Tested on: KM20L2 colon
# experimentalDetails: NCI tumour cell line growth inhibition, 48 h
property: TGI

Worked examples follow.
> print(dat)
                                   compound  experimentalresult
1  OC1/C(=C/c2ccccc2)CNC/C1=C\c1ccccc1 (stereo unspecified)            > 100 µM
2                              NCCCSCC(=O)O            > 100 µM
3  CSc1nc(NC2OC(CO)C(O)C(O)C2O)c(N)c(=O)[nH]1 (stereo unspecified)            > 100 µM
4                     O=CN/C=C\c1cc(O)ccc1O           > 62.4 µM
5              Cc1cc2c(C=O)[nH]nc2c(C#N)c1C            > 100 µM

Please look at the following compound next.
The compound listed as COc1ccc(/C=C\c2cc(OC)c(OC(C)=O)c(OC)c2)cc1 shows TGI equal to > 100 µM
